Can you tell me log10 IC50 for the items I'm about to list?
tested on: Plasmodium falciparum; assay: Antiparasitic activity against Plasmodium falciparum K1; format: functional, organism-based
Please note: log10 values; quantity IC50; unit nM.

// for each compound below, give its log10 IC50
1. N=C(Nc1ccc(-c2ccc(-c3ccc(NC(=N)NC4CCCC4)cc3)s2)cc1)NC1CCCC1
2. Cc1ccc(NC(=N)Nc2ccc(-c3ccc(-c4ccc(NC(=N)Nc5ccc(C)cc5)cc4)s3)cc2)cc1
3. N=C(N)Nc1ccc(-c2ccc(-c3ccc(NC(=N)N)cc3)s2)cc1

Response line:
1: 2.13; 2: 1.63; 3: 0.56

* * *

system: Trypanosoma cruzi; assay: Antiparasitic activity against Trypanosoma cruzi Tulahuen LacZ C4; assay type: functional, organism-based
Can you tell me IC50 for the items I'm about to list?

Prompt line: Given the compound N=C(Nc1ccccc1)Nc1ccc(-c2ccc(-c3ccc(NC(=N)Nc4ccccc4)cc3)s2)cc1 , what is its reported IC50?
Response line: 9.9 µM

Prompt line: Given the compound N=C(N)c1ccc(-c2ccc(-c3ccc(C(=N)N)cc3)o2)cc1 [FURAMIDINE] , what is its reported IC50?
Response line: 23.3 µM

// for each compound below, give its IC50
1. N=C(Nc1ccc(-c2ccc(-c3ccc(NC(=N)NC4CCCC4)cc3)s2)cc1)NC1CCCC1
2. Cc1ccc(NC(=N)Nc2ccc(-c3ccc(-c4ccc(NC(=N)Nc5ccc(C)cc5)cc4)s3)cc2)cc1
3. CNC(=N)Nc1ccc(-c2ccc(-c3ccc(NC(=N)NC)cc3)s2)cc1
4. N=C(N)Nc1ccc(-c2ccc(-c3ccc(NC(=N)N)cc3)s2)cc1

Response line:
8.4 µM
3.7 µM
30.5 µM
154 µM

* * *

tested on: Plasmodium falciparum; experiment: Antiparasitic activity against Plasmodium falciparum K1; type: functional, organism-based
outcome-measure: pIC50
Give bare numbers, as −log10 of the molar value.

Look over these answered cases.
Prompt line: Given the molecule N=C(Nc1ccc(-c2ccc(-c3ccc(NC(=N)NC4CCCCC4)cc3)s2)cc1)NC1CCCCC1 , what is its reported pIC50?
Response line: 6.80

Prompt line: Given the molecule CNC(=N)Nc1ccc(-c2ccc(-c3ccc(NC(=N)NC)cc3)s2)cc1 , what is its reported pIC50?
Response line: 7.64

Prompt line: Given the molecule N=C(Nc1ccccc1)Nc1ccc(-c2ccc(-c3ccc(NC(=N)Nc4ccccc4)cc3)s2)cc1 , what is its reported pIC50?
Response line: 6.81

Now examine the next entry.
Prompt line: Given the molecule CC(C)NC(=N)Nc1ccc(-c2ccc(-c3ccc(NC(=N)NC(C)C)cc3)s2)cc1 , what is its reported pIC50?
Response line: 6.97

* * *

tested on: Trypanosoma cruzi; assay: Antiparasitic activity against Trypanosoma cruzi Tulahuen LacZ C4; format: functional, organism-based
outcome-measure: IC50 (µM)
Answers are plain numbers, in µM.

Prompt line: Given the molecule N=C(N)c1ccc(OCCCCCOc2ccc(C(=N)N)cc2)cc1 [PENTAMIDINE] , what is its reported IC50?
Response line: 5.35

Prompt line: Given the molecule CC(C)NC(=N)Nc1ccc(-c2ccc(-c3ccc(NC(=N)NC(C)C)cc3)s2)cc1 , what is its reported IC50?
Response line: 28.2

Now examine the next entry.
Prompt line: Given the molecule N=C(Nc1ccc(-c2ccc(-c3ccc(NC(=N)NC4CCCCC4)cc3)s2)cc1)NC1CCCCC1 , what is its reported IC50?
Response line: 1.7
